biological target: Human HER3, endogenous, on human cancer cell lines (SK-Br-3, MCF7, BT-474) (human, UniProt P21860 20-1342); assay: cell-based or functional assay
Sequence (P21860 20-1342): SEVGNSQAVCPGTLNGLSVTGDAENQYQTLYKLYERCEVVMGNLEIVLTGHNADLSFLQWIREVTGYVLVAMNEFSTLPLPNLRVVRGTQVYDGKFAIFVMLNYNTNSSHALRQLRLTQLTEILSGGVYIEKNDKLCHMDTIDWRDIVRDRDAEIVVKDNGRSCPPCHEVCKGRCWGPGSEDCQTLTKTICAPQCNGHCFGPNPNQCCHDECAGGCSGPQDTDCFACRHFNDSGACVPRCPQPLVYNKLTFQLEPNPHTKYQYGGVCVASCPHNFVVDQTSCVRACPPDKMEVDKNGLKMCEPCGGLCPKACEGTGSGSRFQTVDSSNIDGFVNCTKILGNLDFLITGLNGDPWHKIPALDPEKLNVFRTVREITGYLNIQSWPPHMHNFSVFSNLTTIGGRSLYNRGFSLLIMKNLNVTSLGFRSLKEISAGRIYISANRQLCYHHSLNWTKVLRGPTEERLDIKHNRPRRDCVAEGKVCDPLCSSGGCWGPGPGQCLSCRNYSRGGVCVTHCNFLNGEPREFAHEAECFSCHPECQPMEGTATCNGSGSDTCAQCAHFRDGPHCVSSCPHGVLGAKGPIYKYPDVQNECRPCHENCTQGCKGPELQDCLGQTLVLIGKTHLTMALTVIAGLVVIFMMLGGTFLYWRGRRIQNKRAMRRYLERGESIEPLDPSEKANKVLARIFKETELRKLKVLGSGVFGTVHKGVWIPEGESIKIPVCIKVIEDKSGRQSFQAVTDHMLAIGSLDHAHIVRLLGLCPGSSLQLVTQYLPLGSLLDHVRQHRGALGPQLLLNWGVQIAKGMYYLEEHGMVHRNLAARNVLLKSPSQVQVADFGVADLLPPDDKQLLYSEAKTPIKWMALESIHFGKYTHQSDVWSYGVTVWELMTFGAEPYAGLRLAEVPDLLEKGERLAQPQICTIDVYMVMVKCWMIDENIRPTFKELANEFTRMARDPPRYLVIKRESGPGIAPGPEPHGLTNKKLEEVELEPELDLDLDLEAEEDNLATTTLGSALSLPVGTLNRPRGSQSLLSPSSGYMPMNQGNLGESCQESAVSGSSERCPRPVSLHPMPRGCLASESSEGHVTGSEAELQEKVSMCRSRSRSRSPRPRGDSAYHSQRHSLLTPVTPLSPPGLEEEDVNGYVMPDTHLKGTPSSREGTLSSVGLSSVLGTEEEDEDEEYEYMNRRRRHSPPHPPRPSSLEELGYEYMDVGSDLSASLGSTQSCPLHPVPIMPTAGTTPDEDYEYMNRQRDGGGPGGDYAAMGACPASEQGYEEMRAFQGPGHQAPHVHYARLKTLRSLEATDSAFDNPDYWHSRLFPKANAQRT
Tag: condition met if measured SK-Br-3 pHER3 % inhibition is not below 80%, condition not met if it is.

- BINDER: "MOR13750 (antibody, human IgG1, kappa, V domains shown, tested as IgG) VH: QVQLVQSGAEVKKPGESLKISCKGSGYSFTSSWVAWVRQMPGKGLEWMGIIYPGGSDTIYSPSFQGQVTISADKSISTAYLQWSSLKASDTAMYYCARVHIIQPPSAWSYNAMDVWGQGTLVTVSS VL: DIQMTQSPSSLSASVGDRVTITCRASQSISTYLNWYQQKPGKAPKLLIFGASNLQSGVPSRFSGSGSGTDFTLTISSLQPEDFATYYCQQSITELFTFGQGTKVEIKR"
  CATEGORY: "condition not met"
- BINDER: "MOR13752 (antibody, human IgG1, kappa, V domains shown, tested as IgG) VH: QVQLVQSGAEVKKPGESLKISCKGSGYSFTNYWVAWVRQMPGKGLEWMGIIYPGGSDTIYSPSFQGQVTISADKSISTAYLQWSSLKASDTAMYYCARVHIIQPPSAWSYNAMDVWGQGTLVTVSS VL: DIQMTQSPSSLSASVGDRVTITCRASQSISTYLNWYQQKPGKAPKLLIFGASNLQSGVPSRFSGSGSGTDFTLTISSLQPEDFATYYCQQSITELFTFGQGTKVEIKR"
  CATEGORY: "condition not met"
- BINDER: "MOR13761 (antibody, human IgG1, kappa, V domains shown, tested as IgG) VH: QVQLVQSGAEVKKPGESLKISCKGSGYSFTQTWVAWVRQMPGKGLEWMGIIYPGQSDTIYSPSFQGQVTISADKSISTAYLQWSSLKASDTAMYYCARVHIIQPPSAWSYNAMDVWGQGTLVTVSS VL: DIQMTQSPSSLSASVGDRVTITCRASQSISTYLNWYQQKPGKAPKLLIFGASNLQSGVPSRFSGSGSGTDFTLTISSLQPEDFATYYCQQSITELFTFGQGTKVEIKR"
  CATEGORY: "condition not met"
- BINDER: "MOR12616 (antibody, human IgG1, kappa, V domains shown, tested as IgG) VH: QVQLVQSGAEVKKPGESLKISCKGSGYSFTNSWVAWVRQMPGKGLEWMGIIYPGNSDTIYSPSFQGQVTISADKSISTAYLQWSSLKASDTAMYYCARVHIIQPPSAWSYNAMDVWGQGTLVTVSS VL: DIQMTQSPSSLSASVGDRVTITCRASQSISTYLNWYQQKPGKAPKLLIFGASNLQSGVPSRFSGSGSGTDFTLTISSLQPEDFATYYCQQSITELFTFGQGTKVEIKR"
  CATEGORY: "condition not met"
- BINDER: "MOR13868 (antibody, human IgG1, kappa, V domains shown, tested as IgG) VH: QVQLVQSGAEVKKPGESLKISCKGSGYSFSNYWIAWVRQMPGKGLEWMGIIYPGLSDTIYSPSFQGQVTISADKSISTAYLQWSSLKASDTAMYYCARVHIIQPPSAWSYNAMDVWGQGTLVTVSS VL: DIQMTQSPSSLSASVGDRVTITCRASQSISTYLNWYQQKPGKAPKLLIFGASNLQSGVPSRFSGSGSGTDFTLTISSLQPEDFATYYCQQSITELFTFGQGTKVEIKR"
  CATEGORY: "condition met"

Here's the next entry for you.
Query: Form field: SK-Br-3 pHER3 % inhibition at least 80%? Entry: MOR13867 (antibody, human IgG1, kappa, V domains shown, tested as IgG) VH: QVQLVQSGAEVKKPGESLKISCKGSGYSFSNYWIAWVRQMPGKGLEWMGIIYPGQSDTIYSPSFQGQVTISADKSISTAYLQWSSLKASDTAMYYCARVHIIQPPSAWSYNAMDVWGQGTLVTVSS VL: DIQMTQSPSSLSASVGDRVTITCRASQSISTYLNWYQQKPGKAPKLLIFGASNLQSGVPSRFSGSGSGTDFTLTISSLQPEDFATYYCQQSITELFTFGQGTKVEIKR
Response: condition met
